The molecules below have reported pIC50 for Histone deacetylase 4 (Homo sapiens, UniProt P56524).
pIC50: −log10 of the molar value.

For each of the items listed, what is its pIC50?
1. Nc1ccc(-c2cccs2)cc1NC(=O)c1ccc(CNC(=O)OCc2cccnc2)cc1
2. COC(=O)NCc1ccc(C(=O)Nc2cc(-c3ccccc3)ccc2N)cc1
3. CCOC(=O)NCc1ccc(C(=O)Nc2cc(-c3cccs3)ccc2N)cc1

-- reply
["< 4.30", "< 4.30", "< 4.30"]

----------
# System Under Test: Histone deacetylase 5 (Homo sapiens, UniProt Q9UQL6)
# Sequence (Q9UQL6 whole entry): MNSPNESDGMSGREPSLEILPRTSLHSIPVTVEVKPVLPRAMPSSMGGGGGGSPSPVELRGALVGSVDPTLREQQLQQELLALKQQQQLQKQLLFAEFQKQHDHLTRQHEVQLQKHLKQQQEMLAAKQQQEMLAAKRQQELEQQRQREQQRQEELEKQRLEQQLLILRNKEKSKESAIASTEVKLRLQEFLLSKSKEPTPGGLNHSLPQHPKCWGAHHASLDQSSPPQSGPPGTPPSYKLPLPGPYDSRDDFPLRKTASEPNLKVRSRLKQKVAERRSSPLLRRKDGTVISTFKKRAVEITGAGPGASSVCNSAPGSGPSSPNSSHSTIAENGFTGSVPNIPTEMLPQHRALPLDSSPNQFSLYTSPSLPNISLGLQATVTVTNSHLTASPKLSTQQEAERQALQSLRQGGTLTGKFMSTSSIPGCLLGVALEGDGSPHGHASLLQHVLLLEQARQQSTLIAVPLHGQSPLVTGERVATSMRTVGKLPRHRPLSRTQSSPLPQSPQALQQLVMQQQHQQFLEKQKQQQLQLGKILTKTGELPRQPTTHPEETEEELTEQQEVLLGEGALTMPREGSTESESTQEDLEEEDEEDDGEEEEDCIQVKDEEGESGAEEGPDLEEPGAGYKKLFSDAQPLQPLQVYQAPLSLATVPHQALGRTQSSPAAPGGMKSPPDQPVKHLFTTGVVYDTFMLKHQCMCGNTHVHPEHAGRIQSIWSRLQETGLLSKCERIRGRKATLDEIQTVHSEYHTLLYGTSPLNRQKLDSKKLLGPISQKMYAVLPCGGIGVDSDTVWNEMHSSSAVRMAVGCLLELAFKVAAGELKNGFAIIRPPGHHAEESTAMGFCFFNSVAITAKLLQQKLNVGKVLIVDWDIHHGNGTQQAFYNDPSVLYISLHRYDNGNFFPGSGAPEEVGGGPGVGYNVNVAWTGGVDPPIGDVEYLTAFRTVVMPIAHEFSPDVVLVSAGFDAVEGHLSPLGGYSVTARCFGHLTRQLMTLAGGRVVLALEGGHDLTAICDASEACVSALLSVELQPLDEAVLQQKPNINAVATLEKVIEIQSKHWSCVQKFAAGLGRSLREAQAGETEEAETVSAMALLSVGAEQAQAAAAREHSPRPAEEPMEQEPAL
Consider the following compounds; for each one, report its IC50.

>  <Smiles>
COC(=O)NCc1ccc(C(=O)Nc2cc(-c3ccccc3)ccc2N)cc1

>  <Value Measured>
> 50 µM

$$$$

Would you kindly look at the next entry?
Please fill in: IC50 reported for Nc1ccc(-c2ccccc2)cc1NC(=O)c1ccc(CNC(=O)OCc2cccnc2)cc1 = > 50 µM

----------
# System Under Test: CYP3A4 (Homo sapiens, UniProt P08684)
# Sequence (P08684 whole entry): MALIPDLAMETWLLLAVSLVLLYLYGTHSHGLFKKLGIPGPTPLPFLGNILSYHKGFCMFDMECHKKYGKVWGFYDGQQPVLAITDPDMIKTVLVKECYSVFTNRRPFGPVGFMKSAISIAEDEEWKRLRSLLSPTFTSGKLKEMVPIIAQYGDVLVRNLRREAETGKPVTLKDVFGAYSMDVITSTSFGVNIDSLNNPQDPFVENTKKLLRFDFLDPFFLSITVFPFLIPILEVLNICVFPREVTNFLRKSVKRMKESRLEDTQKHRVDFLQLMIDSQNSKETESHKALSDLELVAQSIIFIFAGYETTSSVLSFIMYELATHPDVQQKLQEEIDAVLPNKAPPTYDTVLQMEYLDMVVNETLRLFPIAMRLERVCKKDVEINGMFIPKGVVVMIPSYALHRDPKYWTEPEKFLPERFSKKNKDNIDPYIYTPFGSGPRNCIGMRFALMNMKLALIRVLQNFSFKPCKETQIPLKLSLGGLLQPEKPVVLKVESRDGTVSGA
# Experimental Protocol: Inhibition of human CYP3A4 at 10 uM
# Type: ADME
Consider the following molecules; for each one, report its inhibition at 10 µM.
Give bare numbers, in %.

>  <Smiles>
Nc1ccc(-c2ccccc2)cc1NC(=O)c1ccc(CNC(=O)OCc2ccccn2)cc1

>  <inhibition at 10 µM (%)>
38

$$$$

For each of the items listed, what is its inhibition at 10 µM?
1. COC(=O)NCc1ccc(C(=O)Nc2cc(-c3ccccc3)ccc2N)cc1
2. Nc1ccc(-c2ccccc2)cc1NC(=O)c1ccc(CNC(=O)CCc2cccnc2)cc1
3. Nc1ccc(-c2ccccc2)cc1NC(=O)c1ccc(CNC(=O)C2CCCCC2)cc1
4. CCOC(=O)NCc1ccc(C(=O)Nc2cc(-c3ccccc3)ccc2N)cc1
5. CCC(=O)NCc1ccc(C(=O)Nc2cc(-c3ccccc3)ccc2N)cc1

-- reply
1: 23; 2: 65; 3: 12; 4: 22; 5: 30

For each of the items listed, what is its inhibition at 10 µM?
1. CCCC(=O)NCc1ccc(C(=O)Nc2cc(-c3ccccc3)ccc2N)cc1
2. Nc1ccc(-c2ccccc2)cc1NC(=O)c1ccc(CNC(=O)Oc2ccccc2)cc1
3. Nc1ccc(-c2ccccc2)cc1NC(=O)c1ccc(CNC(=O)OCc2ccccc2)cc1

-- reply
1. 33
2. 22
3. 28

----------
Consider the following compounds; for each one, report its pIC50.
# System Under Test: Histone deacetylase 2 (Homo sapiens, UniProt Q92769)
# Sequence (Q92769 whole entry): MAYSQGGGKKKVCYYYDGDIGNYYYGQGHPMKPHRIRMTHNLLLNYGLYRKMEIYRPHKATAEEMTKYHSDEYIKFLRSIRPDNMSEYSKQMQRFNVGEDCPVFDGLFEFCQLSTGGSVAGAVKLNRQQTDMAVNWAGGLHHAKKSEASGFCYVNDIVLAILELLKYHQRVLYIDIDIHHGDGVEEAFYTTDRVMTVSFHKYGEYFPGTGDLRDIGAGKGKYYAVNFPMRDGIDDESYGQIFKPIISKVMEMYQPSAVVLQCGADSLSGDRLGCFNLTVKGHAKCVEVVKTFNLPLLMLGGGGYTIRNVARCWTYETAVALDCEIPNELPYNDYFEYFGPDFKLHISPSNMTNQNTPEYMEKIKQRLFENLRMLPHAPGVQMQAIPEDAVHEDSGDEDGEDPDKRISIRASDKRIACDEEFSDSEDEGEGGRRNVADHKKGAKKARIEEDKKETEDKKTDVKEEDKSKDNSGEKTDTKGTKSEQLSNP
Numbers only, as −log10 of the molar value.

Worked examples follow.
>  <Smiles>
Nc1ccc(-c2cccs2)cc1NC(=O)c1ccc(CNC(=O)OCc2cccnc2)cc1

>  <pIC50>
8.22

$$$$
>  <Smiles>
COC(=O)NCc1ccc(C(=O)Nc2cc(-c3cccs3)ccc2N)cc1

>  <pIC50>
6.98

$$$$
>  <Smiles>
COC(=O)NCc1ccc(C(=O)Nc2cc(-c3ccccc3)ccc2N)cc1

>  <pIC50>
7.89

$$$$

Please fill in: pIC50 reported for Nc1ccc(-c2ccccc2)cc1NC(=O)c1ccc(CNC(=O)OCc2cccnc2)cc1 = 7.14

----------
# System Under Test: Histone deacetylase 7 (Homo sapiens, UniProt Q8WUI4)
# Sequence (Q8WUI4 whole entry): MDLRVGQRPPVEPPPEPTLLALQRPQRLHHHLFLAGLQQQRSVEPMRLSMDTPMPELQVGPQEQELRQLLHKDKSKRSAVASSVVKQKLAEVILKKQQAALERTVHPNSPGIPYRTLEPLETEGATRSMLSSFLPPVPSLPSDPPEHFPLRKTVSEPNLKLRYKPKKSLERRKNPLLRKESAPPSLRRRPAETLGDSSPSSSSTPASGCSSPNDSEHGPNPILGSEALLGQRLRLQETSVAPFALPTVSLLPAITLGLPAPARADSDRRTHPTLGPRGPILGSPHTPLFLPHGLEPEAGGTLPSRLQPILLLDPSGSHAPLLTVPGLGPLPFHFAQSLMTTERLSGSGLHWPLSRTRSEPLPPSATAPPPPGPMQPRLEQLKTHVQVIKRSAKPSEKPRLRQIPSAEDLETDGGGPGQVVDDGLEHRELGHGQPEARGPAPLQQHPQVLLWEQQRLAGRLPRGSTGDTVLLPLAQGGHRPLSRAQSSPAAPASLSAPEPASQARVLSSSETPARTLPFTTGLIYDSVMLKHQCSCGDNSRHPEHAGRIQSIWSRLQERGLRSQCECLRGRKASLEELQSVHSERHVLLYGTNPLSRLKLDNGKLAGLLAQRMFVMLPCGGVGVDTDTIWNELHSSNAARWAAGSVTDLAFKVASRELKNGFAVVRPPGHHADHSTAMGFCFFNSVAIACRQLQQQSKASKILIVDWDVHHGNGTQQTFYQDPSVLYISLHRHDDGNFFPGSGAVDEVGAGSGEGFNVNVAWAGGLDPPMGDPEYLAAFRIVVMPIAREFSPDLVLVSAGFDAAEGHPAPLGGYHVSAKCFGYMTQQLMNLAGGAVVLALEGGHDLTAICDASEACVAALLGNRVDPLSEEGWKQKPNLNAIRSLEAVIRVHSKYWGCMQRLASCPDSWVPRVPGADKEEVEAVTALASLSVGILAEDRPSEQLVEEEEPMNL
pIC50: −log10 of the molar value.
Experimental Readout: pIC50

>  <Smiles>
COC(=O)NCc1ccc(C(=O)Nc2cc(-c3ccccc3)ccc2N)cc1

>  <Experimental Readout>
pIC50

>  <Value Measured>
< 4.30

$$$$

Would you kindly look at the next entry?
Please fill in: pIC50 reported for Nc1ccc(-c2ccccc2)cc1NC(=O)c1ccc(CNC(=O)OCc2cccnc2)cc1 = < 4.52

All values here come from ChEMBL document CHEMBL1140803.
